Data origin: patent EP3360553B1

assay: Control of hemolysis (RBC concentration by CASY Cell Counter and Analyzer); assay type: cell-based; conditions: red blood cells; 0.1 mM, 30 min incubation at room temperature; compared to vehicle (DMSO); read-out: decrease of the RBC concentration
measurement_name: hemolysis at 0.5 h, 100 µM

## Task In one line, give reported hemolysis at 0.5 h, 100 µM of the entry Cc1c(CC(=O)NC(C(=O)O)c2ccccc2)c(=O)oc2c(C)c3oc4c(c3cc12)CCCC4 (stereo not shown) .
## Result < 10%
